Assay: small-molecule binders of probe aInhba, primary screen, biochemical, small-molecule microarray, 635/667 nm fluorescence (AID 1148);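 also: score merges 667nm spot fluorescence with signal-to-noise for antibody binding to printed compounds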
Conditions: higher = more signal
Reported composite z-score values for a set of compounds

Here is how some compounds turned out for composite z-score.
compound	composite z-score
COc1ccc(COC(=O)NN=C2C[C@@H](O)[C@@H](O)[C@@H]3[C@@H]4C(=O)N(C5CCCCC5)C(=O)[C@@H]4CC[C@@H]23)cc1	-0.0774
O=C1[C@H]2[C@H]3[C@H](O)[C@H](O)CC(=NO[C@@H]4O[C@H](CO)[C@@H](O)[C@H](O)[C@H]4O)[C@H]3CC[C@H]2C(=O)N1c1ccc(F)cc1F	-0.0774
COc1cccc([C@H]2Oc3ccc(OC)cc3C(=NOCC[C@@H]3C=C[C@H](OC(C)=O)[C@@H](COC(C)=O)O3)[C@@H]2O)c1	-0.154

Q: Requested read-out: composite z-score. Entry: CCc1cc2c(nc1CC)CCN(CCC(C)=NOC[C@@H](C)[C@H](OCc1ccccc1)C(C)C)C2
Ans: -0.302

Q: # query: composite z-score of entry CON=C1c2cc(OC)ccc2O[C@H](c2cccc(OC)c2)[C@H]1O
Ans: -0.016

Q: What composite z-score value was documented for this compound, COc1ccc(O[C@H]2C=C[C@@H](C#Cc3ccccc3)O[C@@H]2CO)cc1 ?
Ans: -0.182

Q: State the recorded composite z-score for this entry: CCOC(=O)[C@H](CC(C)C)NC(=O)CCC1CC(OC(=O)NCc2ccc3c(c2)OCO3)CC2(CCCC(COC(=O)NCCOC)O2)O1 (some centres not stated)
Ans: -0.0006

###

Experiment: P. aeruginosa biofilm formation inhibitors, primary screen, PAO1 strain, BacTiter-Glo luminescence, LB-PBS (AID 1144)
Conditions: 12 h, higher = more signal
The source made the active and inactive calls. The rule behind the calls is not given here.
measureName: z-score

Q: I would be grateful if you could share the reported z-score for CCCC[C@H]1CN2[C@@H](CC[C@@H](C)[C@@H]2c2ccc(Br)cc2)C(=O)O1 .
Ans: 0.616 (inactive)

Q: Consider the compound shown here: CC(C)=CCCC(C)=CCON=C1C[C@@H](O)[C@@H](O)[C@@H]2[C@@H]3C(=O)N(C4CCCCC4)C(=O)[C@@H]3CC[C@H]12 What is its recorded z-score?
Ans: 0.419 (inactive)

Q: Endpoint output: z-score of COC(=O)[C@H](Cc1ccccc1)NC(=O)[C@@H](C)CO . Value?
Ans: -1.61 (inactive)

Q: Fill blank: measured z-score of the compound CO[C@@H]1COC(=O)[C@@H]2CCCN2C(=O)[C@@H](C)COC(=O)CCC[C@H]1C is ____.
Ans: -0.506 (inactive)

Q: Form field: reported z-score of C#CCCCON=C1C[C@@H](O)[C@@H](O)[C@@H]2[C@@H]3C(=O)N([C@@H](C)c4ccccc4)C(=O)[C@@H]3CC[C@@H]12
Ans: -0.0365 (inactive)

Q: Look at this compound and give its reported z-score. CCC1=NOC(CCC2CC(OC(=O)NCc3cccc4c3OCO4)CC3(CCCC(COC(=O)NCCc4ccc(Cl)cc4)O3)O2)C1 (stereo not given)
Ans: 0.612 (inactive)

Q: Give its z-score value. Item: COCCNC(=O)OCC1CCCC2(CC(OC(=O)NCc3cccc4ccccc34)CC(CCC(=O)N[C@@H](C)C(=O)OC)O2)O1 (stereo not given in full)
Ans: -0.496 (inactive)

Q: Which z-score is listed for CCN1C(=O)[C@H]2[C@H]3[C@H](O)[C@H](O)CC(=NOCC[C@@H]4C=C[C@H](OC(C)=O)[C@@H](COC(C)=O)O4)[C@@H]3CC[C@H]2C1=O ?
Ans: 0.857 (inactive)

Q: Requested read-out: z-score. Entry: CCCNC(=O)OC[C@H]1O[C@H](CCON=C2C[C@@H](O)[C@@H](O)[C@@H]3[C@@H]4C(=O)N(CC)C(=O)[C@@H]4CC[C@@H]23)C=C[C@@H]1Oc1ccc(OC)cc1
Ans: 1.08 (inactive)

Q: Recorded z-score for COC(=O)[C@H](C)NC(=O)CCC1CC(OC(=O)NCc2ccc3c(c2)OCO3)CC2(CCCC(COC(=O)NCCc3ccc(Cl)cc3)O2)O1 (stereo not given in full) , please?
Ans: -0.0135 (inactive)

Q: z-score for CO[C@H]1COC(=O)CCC[C@H](C)[C@H](OC)COC(=O)CC=C[C@@H]1C ?
Ans: -0.339 (inactive)

Q: Record request: z-score value, item CCCNC(=O)OC[C@H]1O[C@H](CCON=C2c3cc(OC)ccc3O[C@H](c3cccc(OC)c3)[C@H]2O)C=C[C@@H]1Oc1ccc(OC)cc1
Ans: 0.298 (inactive)

Q: Which z-score is reported for this compound? CCOC(=O)[C@H](CC(C)C)NC(=O)CCC1CC(OC(=O)NCc2ccc3c(c2)OCO3)CC2(CCCC(COC(=O)NCCOc3ccccc3)O2)O1 (stereo not given in full)
Ans: -0.393 (inactive)

Q: Recorded z-score of COC(=O)C1=C(C)N(Cc2ccccc2)C2=C3C(=O)OCC[C@@H]3[C@@](O)(C(=O)OC)C(=O)N2[C@@H]1c1ccccc1 , please.
Ans: -0.356 (inactive)

Q: Requested read-out: z-score. Entry: COc1ccc(COC(=O)NN=C2C[C@@H](O)[C@@H](O)[C@@H]3[C@@H]4C(=O)N(C[C@@H]5CCCO5)C(=O)[C@@H]4CC[C@H]23)cc1
Ans: 0.296 (inactive)

Q: Need z-score of O=C1C=C[C@@H](O)[C@@H]2[C@@H]3C(=O)N(Cc4ccccc4)C(=O)[C@@H]3CC[C@@H]12 , thanks.
Ans: -0.158 (inactive)

Q: Quick one: z-score of COC(=O)[C@H](C)NC(=O)CCC1CC(OC(=O)NCc2cccc3ccccc23)CC2(CCCC(COC(=O)NCCC(C)C)O2)O1 (stereo not given in full) ?
Ans: -0.386 (inactive)

Q: Query (compound): CC(C)CON=C1C[C@@H](O)[C@@H](O)[C@@H]2[C@@H]3C(=O)N(Cc4ccc5c(c4)OCO5)C(=O)[C@@H]3CC[C@@H]12 ; field requested: z-score
Ans: -0.488 (inactive)

Q: Entry COC(=O)[C@@H]1CC[C@H](C)[C@@H](c2ccc(Br)cc2)N1C[C@@H](O)CN=[N+]=[N-] has what z-score?
Ans: -1.91 (inactive)

Q: May I ask what z-score has been recorded for CCOC(=O)[C@H](Cc1ccccc1)NC(=O)CCC1CC(OC(=O)NCCc2ccc(F)cc2)CC2(CCCC(COC(=O)NCCC(C)C)O2)O1 (stereo not given in full) ?
Ans: -0.275 (inactive)
